The origin of these recorded values is ChEMBL document CHEMBL1141096.

assay: Terminal half life upon i.v. dose of 1 mg/kg in rats; assay type: ADME, organism-based; set-up: dose 1 mg/kg, route intravenous; details: rat, in vivo, iv
MEASURED METRIC: half-life (h)

O=C(O)C1CN(Cc2ccc(-c3noc(-c4ccc([C@H]5CCC(F)(F)C5)cc4)n3)cc2)C1	4.1
CC(C)Oc1ccc(-c2nc(-c3ccc(CN4CC(C(=O)O)C4)cc3)no2)cc1	7.1

(1) O=C(O)C1CN(Cc2ccc(-c3noc(-c4ccc(C5CCCC5)cc4)n3)cc2)C1
(2) O=C(O)C1CN(Cc2ccc(-c3noc(-c4ccc(CCC(F)(F)F)cc4)n3)cc2)C1
(3) O=C(O)C1CN(Cc2ccc(-c3noc(-c4ccc(-c5ccccc5)cc4)n3)cc2)C1
// query Arrange the 3 compounds from largest to smallest half-life. # output: labels, in the requested order
// result 3, 2, 1

----------
target: UniProtKB P21453; experiment: Concentration required for displacement of [33P]-labeled S1P from human sphingosine 1-phosphate receptor 1 expressed in CHO cells
Sequence (P21453 whole entry): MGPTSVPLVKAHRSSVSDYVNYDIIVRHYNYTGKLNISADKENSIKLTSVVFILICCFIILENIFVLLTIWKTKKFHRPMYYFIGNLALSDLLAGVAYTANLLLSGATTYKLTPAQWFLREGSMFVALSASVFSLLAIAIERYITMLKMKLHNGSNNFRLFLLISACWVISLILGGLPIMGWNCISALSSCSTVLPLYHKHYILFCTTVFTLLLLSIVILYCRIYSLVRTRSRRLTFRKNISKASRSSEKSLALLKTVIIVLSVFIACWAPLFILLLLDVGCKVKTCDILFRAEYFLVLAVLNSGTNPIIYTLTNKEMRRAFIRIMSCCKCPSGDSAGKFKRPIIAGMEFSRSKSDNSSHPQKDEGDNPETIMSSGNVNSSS
pIC50: −log10 of the molar value.
MEASURED METRIC: pIC50

O=C(O)C1CN(Cc2ccc(-c3noc(-c4ccc(C5CCCCC5)cc4)n3)cc2)C1	8.85

(1) CC(C)(C)Cc1ccc(-c2nc(-c3ccc(CN4CC(C(=O)O)C4)cc3)no2)cc1
(2) O=C(O)C1CN(Cc2ccc(-c3noc(-c4ccc(CCC(F)(F)F)cc4)n3)cc2)C1
// query Please compare: 1 and 2 . Report which one has the smaller pIC50 value. Reply with the label of the item you choose.
// result 1
(1: 8.42, 2: 9.40)

(P) CCC(C)(C)c1ccc(-c2nc(-c3ccc(CN4CC(C(=O)O)C4)cc3)no2)cc1
(Q) CC(C)(C)c1ccc(-c2nnc(-c3ccccc3N)o2)cc1
// query # returns the entry with the larger pIC50; inputs P and Q API: response body contains the label of the selected item.
// result P

----------
test: Volume of distribution of compound upon i.v. dose of 1 mg/kg in rats; type: ADME, organism-based; set-up: dose 1 mg/kg, route intravenous; details: rat, in vivo, iv
MEASURED METRIC: Vd (L/kg)

Worked cases, Vd given:
O=C(O)C1CN(Cc2ccc(-c3noc(-c4ccc(C5CCCCC5)cc4)n3)cc2)C1	4.6
O=C(O)C1CN(Cc2ccc(-c3noc(-c4ccc([C@@H]5CCC(F)(F)C5)cc4)n3)cc2)C1	3
O=C(O)C1CN(Cc2ccc(-c3noc(-c4ccc(C5CCCC5)cc4)n3)cc2)C1	5.6

(a) O=C(O)C1CN(Cc2ccc(-c3noc(-c4ccc(-c5ccccc5)cc4)n3)cc2)C1
(b) CCCc1ccc(-c2nc(-c3ccc(CN4CC(C(=O)O)C4)cc3)no2)cc1
// query Among a and b , which shows a numerically higher Vd result? Your choice should be expressed through its label.
// result a

----------
target: Sphingosine 1-phosphate receptor 3 (Homo sapiens); assay: Concentration required for displacement of [33P]-labeled S1P from human sphingosine 1-phosphate receptor 3 expressed in CHO cells; format: cell-based
Sequence (Q99500 whole entry): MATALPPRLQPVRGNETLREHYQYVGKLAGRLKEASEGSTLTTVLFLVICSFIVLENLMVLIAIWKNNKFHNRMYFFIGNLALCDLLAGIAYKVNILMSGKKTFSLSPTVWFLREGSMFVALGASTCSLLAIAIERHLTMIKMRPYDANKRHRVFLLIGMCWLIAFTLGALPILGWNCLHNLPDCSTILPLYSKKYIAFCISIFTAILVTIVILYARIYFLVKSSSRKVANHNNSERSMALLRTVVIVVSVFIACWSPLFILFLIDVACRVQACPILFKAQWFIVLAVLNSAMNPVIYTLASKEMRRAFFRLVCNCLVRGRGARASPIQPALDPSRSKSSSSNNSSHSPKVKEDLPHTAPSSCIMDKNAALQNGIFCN
MEASURED METRIC: IC50 (µM)

Guide cases for IC50, answers given:
CCC(C)(C)c1ccc(-c2nc(-c3ccc(CN4CC(C(=O)O)C4)cc3)no2)cc1	3.09
O=C(O)C1CN(Cc2ccc(-c3noc(-c4ccc(CCC(F)(F)F)cc4)n3)cc2)C1	13
O=C(O)C1CN(Cc2ccc(-c3noc(-c4ccc([C@@H]5CCC(F)(F)C5)cc4)n3)cc2)C1	4.02
O=C(O)C1CN(Cc2ccc(-c3noc(-c4ccc(C5CCCCC5)cc4)n3)cc2)C1	12

(P) O=C(O)C1CN(Cc2ccc(-c3noc(-c4ccc([C@H]5CCC(F)(F)C5)cc4)n3)cc2)C1
(Q) CCCc1ccc(-c2nc(-c3ccc(CN4CC(C(=O)O)C4)cc3)no2)cc1
(R) CC(C)(C)c1ccc(-c2nc(-c3ccc(CN4CC(C(=O)O)C4)cc3)no2)cc1
// query List items by IC50 in falling order. Reply with the item labels sorted in the order that was asked for.
// result Q, R, P
